# Test system: MCF7 breast
# assay notes: NCI tumour cell line growth inhibition, 48 h; in the data active = GI50 below about 0.43 µM; inactive = the rest
Assign a class; possible classes are active, inactive

Observe how each entry below is paired with its result.
C#CCOc1cccc(Nc2ncnc3ccc(NC(=O)CCl)cc23)c1 : inactive
O=C(c1ccccc1)c1nc2ccc(C(F)(F)F)cc2[n+]([O-])c1C(F)(F)F : inactive
COc1ccc(C(=O)COc2cccc(/C=C3\CSc4ccc(C)cc4C3=O)c2)cc1 : inactive

// return assay outcome for CS(=O)(=O)CCNCc1ccc(-c2ccc3ncnc(Nc4ccc(OCc5ccccc5)c(Cl)c4)c3c2)o1
inactive

// return assay outcome for C[C@H]1C(Oc2ccc(O)cc2)OC2OC3(C)CCC4[C@H](C)CCC1C24OO3 (stereo not given in full)
inactive

// return assay outcome for C=C(C)[C@@H]1CC[C@]2(COC3CCCCO3)CC[C@]3(C)[C@H](CC[C@@H]4[C@@]5(C)C=C(C=O)C(=O)C(C)(C)[C@@H]5CC[C@]43C)[C@@H]12 (stereo not given in full)
inactive

// return assay outcome for O=C1C(Cl)=C(Nc2cccc(O)c2)C(=O)N1c1ccccc1Cl
inactive

###

# TGI annotations
# System: A498 renal
# assay notes: NCI tumour cell line growth inhibition, 48 h

Examples with their reported TGI follow.
Cc1c(C)c(S(=O)(=O)N(CCCN)OCCCN)c(C)c2c1OC(C)(C)C2 : 42 µM
COc1cc2c(cc1OC)C(N)CC2=O (centres undefined) : > 100 µM
COc1cc(/C=C2/C(=O)N(C(=O)c3ccc(Cl)cc3)N=C2C)cc(OC)c1OC : > 100 µM
COCCOCC(=O)N(CCn1ccc(NC(c2ccccc2)(c2ccccc2)c2ccccc2)nc1=O)CCn1cnc2nc(N)[nH]c(=O)c21 : > 100 µM

Query the reported TGI for A498 renal; item: Cc1cc(C)c(S(=O)(=O)ONC(=O)OC(C)(C)C)c(C)c1
> 100 µM

Query the reported TGI for A498 renal; item: O=C1CCc2c(sc3[nH]c(=S)n(Cc4ccccc4)c(=O)c23)C1
> 100 µM

Query the reported TGI for A498 renal; item: COc1ccc2c(c1)[n+](=O)c(C(=O)/C=C/c1cc(OC)c(OC)c(OC)c1)c(C)n2[O-]
57.5 µM

Query the reported TGI for A498 renal; item: CC1(C)CC(=O)c2c(nc(SSc3nc4c(c(-c5ccccc5)c3C#N)C(=O)CC(C)(C)C4)c(C#N)c2-c2ccccc2)C1
> 10 µM

Query the reported TGI for A498 renal; item: OC1CN2Cc3cc4c(cc3[C@]13C=C[C@@H](O)CC23)OCO4 (some centres undefined)
> 100 µM

###

# Tested on: NCI-H226 lung
# assay notes: NCI tumour cell line growth inhibition, 48 h; in the data active means GI50 below about 0.43 µM; inactive means the rest
Assign a class; possible classes are active, inactive

CCC(C(=O)[O-])C(=O)[O-].CCC(C(=O)[O-])C(=O)[O-].N.N.NCCCCCCN.[Pt+4].[Pt+4] : inactive
CCC1CCc2nc3sc(C(=O)Nc4ccccc4C)c(N)c3cc2C1 (stereo not drawn) : inactive
CCN1C(=O)N(c2ccccc2)C2NN=c3s/c(=C4\C(=O)N(C(C)C)c5ccccc54)c(=O)n3C21 (stereo not drawn) : inactive
CN(CCCl)c1ccc(/C=C/C2=[N+](C)c3ccccc3C2(C)C)cc1 : inactive
O=C(CCCCCCSc1nc(-c2ccc(Cl)cc2)cc(-c2ccc(Cl)cc2)n1)NO : inactive

// return assay outcome for C[C@H]1C(Oc2ccc(O)cc2)OC2OC3(C)CCC4[C@H](C)CCC1C24OO3 (stereo partly drawn)
inactive

// return assay outcome for O=C([O-])c1ccc(C(=O)[O-])cc1.O=C([O-])c1ccc(C(=O)[O-])cc1.[Mo+2].[Mo+2]
inactive

###

# Test system: HOP-18 NSCLC
# assay notes: NCI tumour cell line growth inhibition, 48 h
property: TGI

O=C(NNC(=O)c1cc(/C=C/c2cccc([N+](=O)[O-])c2)[nH]c(=S)n1)Nc1ccc(Cl)cc1 : > 100 µM
Cc1ccc(O)c(C(=O)CCCC(=O)c2cc(C)ccc2O)c1 : > 100 µM
COC(=O)c1ccc(Cc2ccc(C(=O)OC)o2)o1 : > 378 µM
COC(=O)[C@@]12OC[C@]34C([C@@H](O)C1O)[C@@]1(C)CC(=O)C(OC(=O)/C=C(/c5ccccc5)C(F)(F)F)=C(C)C1C[C@H]3OC(=O)[C@H](O)[C@H]42 (some centres undefined) : > 50 µM
O=C(NO)C(=O)Nc1ccc(Cl)cc1[N+](=O)[O-] : > 100 µM
CN(C)c1n/c(=N/c2ncn[nH]2)ss1 : > 100 µM
CC(=O)NNc1nc(C)c(C(/C=C/c2ccc(Cl)cc2)=N/NC(=O)C[N+](C)(C)C)s1 : > 100 µM
COc1cc([C@@H]2c3cc4c(cc3[C@@H](NC(=O)c3cccc(F)c3)C3COC(=O)[C@@H]32)OCO4)cc(OC)c1O (some centres undefined) : > 100 µM

Suppose we examine the compound O=C1CC(=O)N(CCc2ccccc2)S(=O)(=O)N1CCc1ccccc1 ; what TGI value has been reported?
> 100 µM

###

# TGI annotations
# Tested on: NCI/ADR-RES ovarian
# assay notes: NCI tumour cell line growth inhibition, 48 h

C/C(Cc1ccc(Cl)cc1)=C(/c1ccc(Cl)cc1)c1ccc(OCCN(C)C)cc1 : 9.88 µM
NC(=O)NC(=O)c1cccc(NC(=O)CBr)c1 : 0.799 µM
CNC1C(O)C(OC2C(N)CC(N)C(OC3OC(C(C)O)C(O)C(O)C3N)C2O)OCC1(C)O (stereo not given) : > 100 µM

Query the reported TGI for NCI/ADR-RES ovarian; item: COc1cccc2[nH]c(-c3ccccn3)nc12
73.8 µM

Query the reported TGI for NCI/ADR-RES ovarian; item: O=C1/C(=C/c2ccc(Cl)cc2)N=C(c2ccccc2)N1c1ccc(S(=O)(=O)Nc2nccs2)cc1
> 100 µM

###

# TGI annotations
# Test system: MDA-N
# assay notes: NCI tumour cell line growth inhibition, 48 h

Cc1ccsc1/C=N/Nc1nncc2ccccc12 : > 100 µM
COc1ccc(Cc2nccc3cc(OC)c(OC)cc23)cc1OC : > 100 µM
NC(=O)/C=C/NC(=O)/C=N\O : > 100 µM
C=CCNC1=C2C[C@@H](C)C[C@@H](OC)[C@H](OC(=O)CN)[C@H](C)/C=C(\C)[C@@H](OC(N)=O)[C@H](OC)/C=C\C=C(/C)C(=O)NC(=CC1=O)C2=O : 13 µM

Turning to the following compound.
Suppose we examine the compound O=C=NCCCCCCN1C(=O)N2C(c3ccccc3)N(CCCCCCN=C=O)C(=O)N2C1c1ccccc1 (stereo not given) ; what TGI value has been reported?
> 100 µM

###

# Tested on: M14 melanoma
# assay notes: NCI tumour cell line growth inhibition, 48 h
# TGI annotations

Examples with their reported TGI follow.
NC(N)=NCCCC(NC(=O)OCCCCCCn1ccc(N)nc1=O)C(=O)O (stereo not given) : > 100 µM
Cc1ccc(S(=O)(=O)N2CCCC2C(=O)O[C@H]2CC[C@H]3CC=C[C@H]32)cc1 (stereo not given in full) : > 100 µM
CC(C)C(/C=C/c1ccc(Br)cc1)=N\NC(N)=O : > 100 µM
CC(C)(C)C(=O)O[C@@H]1COC2C(O)COC21 (stereo not given in full) : > 100 µM

Query the reported TGI for M14 melanoma; item: CCOC(=O)c1ccc(-n2c(SCC)nc3sc(C)c(C)c3c2=O)cc1
> 100 µM

Query the reported TGI for M14 melanoma; item: C=C(C)[C@@H]1CC[C@]2(COC3CCCCO3)CC[C@]3(C)[C@H](CC[C@@H]4[C@@]5(C)C=C(C=O)C(=O)C(C)(C)[C@@H]5CC[C@]43C)[C@@H]12 (stereo not given in full)
3.01 µM

###

# System: MDA-MB-435
# GI50 annotations

COc1cc2nc3cc([N+](=O)[O-])ccc3c(NCCCNCC(C)(C)O)c2cc1OC : 0.4 µM

Query the reported GI50 for MDA-MB-435; item: CCCCCCCCCCCCOC1C(CNC(=O)C2OC3OC(C)(C)OC3C2NC(=O)CN2CCCCCC2)OC2OC(C)(C)OC21 (stereo not given)
2.72 µM

Query the reported GI50 for MDA-MB-435; item: O=C(c1ccccc1)c1nc2ccc(C(F)(F)F)cc2[n+]([O-])c1C(F)(F)F
43.8 µM

###

# System: SK-MEL-5 melanoma
# assay notes: NCI tumour cell line growth inhibition, 48 h; in the data active = GI50 below about 0.43 µM; inactive = the rest
Assign a class; possible classes are active, inactive

Observe how each entry below is paired with its result.
CNCCCNc1nc2ccccc2c2c(=O)c3cc(Cl)ccc3sc12 : inactive
CC(=O)[O][Hg][c]1ccccc1 : inactive
C=C(C)[C@@H]1CC[C@]2(COC3CCCCO3)CC[C@]3(C)[C@H](CC[C@@H]4[C@@]5(C)C=C(C=O)C(=O)C(C)(C)[C@@H]5CC[C@]43C)[C@@H]12 (some centres undefined) : inactive
CCC1CCc2nc3sc(C(=O)Nc4ccccc4C)c(N)c3cc2C1 (centres undefined) : active
O=C(c1ccccc1)c1nc2ccc(C(F)(F)F)cc2[n+]([O-])c1C(F)(F)F : inactive

// return assay outcome for N#Cc1ccc(C(c2ccc(C#N)cc2)n2cncn2)cc1
inactive

// return assay outcome for COc1ccc(-c2c(-c3cc(OC)c4c(c3)OCO4)noc2N)cc1
active

// return assay outcome for CCCCCCCCCCCCOC1C(CNC(=O)C2OC3OC(C)(C)OC3C2NC(=O)CN2CCCCCC2)OC2OC(C)(C)OC21 (centres undefined)
inactive

// return assay outcome for O=C([O-])c1ccc(C(=O)[O-])cc1.O=C([O-])c1ccc(C(=O)[O-])cc1.[Mo+2].[Mo+2]
inactive
